Reference for the values: paper PMC8113725

biological target: E. coli iPGM (Escherichia coli); assay: SPR binding kinetics and saturation binding, biotinylated iPGM on Biotin CAPture chip (Biacore S200); conditions: Supplementary Table 5, SPR, E.c. iPGM; LoQ = limit of quantitation
Sequence (P37689 whole entry): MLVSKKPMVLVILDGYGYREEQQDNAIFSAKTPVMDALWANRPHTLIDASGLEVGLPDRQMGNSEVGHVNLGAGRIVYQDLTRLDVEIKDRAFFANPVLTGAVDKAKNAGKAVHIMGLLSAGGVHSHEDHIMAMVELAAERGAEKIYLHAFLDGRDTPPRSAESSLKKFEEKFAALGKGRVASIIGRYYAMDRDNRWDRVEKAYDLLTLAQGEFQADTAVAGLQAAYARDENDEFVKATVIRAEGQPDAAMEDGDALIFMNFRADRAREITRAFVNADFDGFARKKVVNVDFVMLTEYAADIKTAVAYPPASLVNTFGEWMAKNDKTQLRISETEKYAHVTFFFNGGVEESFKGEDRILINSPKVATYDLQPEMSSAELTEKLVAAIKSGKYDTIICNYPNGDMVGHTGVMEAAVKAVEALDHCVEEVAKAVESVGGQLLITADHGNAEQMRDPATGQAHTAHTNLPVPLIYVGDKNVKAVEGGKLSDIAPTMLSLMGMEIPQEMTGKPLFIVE
Bridge positions count the residues as written; N and C are the ends. Square brackets hold non-standard residues; d marks the D form. Peptide text beside a SMILES is read from it. Abu = CC[C@H](N)C(=O)O
Note to self: kon under 100000 M⁻¹ s⁻¹ means TRUE, ties and anything higher get FALSE.

>>> label_value("CC(C)C[C@H](NC(=O)[C@H](Cc1ccc(O)cc1)NC(=O)[C@@H]1CSCC(=O)N[C@H](Cc2ccc(O)cc2)C(=O)N[C@@H](CC(=O)O)C(=O)N[C@@H](Cc2ccc(O)cc2)C(=O)N2CCC[C@H]2C(=O)NCC(=O)N[C@@H](CC(=O)O)C(=O)N[C@@H](Cc2ccc(O)cc2)C(=O)N1)C(=O)N[C@@H](Cc1ccc(O)cc1)C(=O)NCC(=O)NCC(=O)N[C@@H](CS)C(N)=O [Ce-2 T13G]")
"FALSE"
>>> label_value("CC[C@@H]1NC(=O)[C@@H](Cc2ccc(O)cc2)NC(=O)CSC[C@@H](C(=O)N[C@@H](Cc2ccc(O)cc2)C(=O)N[C@@H](CC(C)C)C(=O)N[C@@H](Cc2ccc(O)cc2)C(=O)NCC(=O)N[C@H](C(=O)N[C@@H](CS)C(N)=O)[C@@H](C)O)NC(=O)[C@H](Cc2ccc(O)cc2)NC(=O)[C@H](CC(=O)O)NC(=O)CNC(=O)[C@@H]2CCCN2C(=O)[C@H](Cc2ccc(O)cc2)NC1=O [Ce-2 D2Abu] ({CH2CO}-[dY][Abu]YPGDYCYLYGTC-NH2; thioether N-8)")
"FALSE"
>>> label_value("CC(C)C[C@H](NC(=O)[C@H](Cc1ccc(O)cc1)NC(=O)[C@@H]1CSCC(=O)N[C@H](Cc2ccc(O)cc2)C(=O)N[C@@H](CC(=O)O)C(=O)N[C@@H](Cc2ccc(O)cc2)C(=O)N[C@@H](C(C)C)C(=O)NCC(=O)N[C@@H](CC(=O)O)C(=O)N[C@@H](Cc2ccc(O)cc2)C(=O)N1)C(=O)N[C@@H](Cc1ccc(O)cc1)C(=O)NCC(=O)N[C@H](C(=O)N[C@@H](CS)C(N)=O)[C@@H](C)O")
"TRUE"
>>> label_value("CC(C)C[C@H](NC(=O)[C@H](Cc1ccc(O)cc1)NC(=O)[C@@H]1CSCC(=O)N[C@H](Cc2ccc(O)cc2)C(=O)N[C@@H](CC(=O)O)C(=O)N[C@@H](Cc2ccc(O)cc2)C(=O)N2CCC[C@H]2C(=O)NCC(=O)N[C@@H](CC(=O)O)C(=O)N[C@@H](Cc2ccc(O)cc2)C(=O)N1)C(=O)N[C@@H](Cc1ccc(O)cc1)C(=O)NCC(=O)N[C@@H](CO)C(=O)N[C@@H](CS)C(N)=O")
"FALSE"

###

target: UniProtKB P37689; assay: biochemical; conditions: […]
Bridge positions count the residues as written; N and C are the ends. Square brackets hold non-standard residues; d marks the D form. Peptide text beside a SMILES is read from it. Nva = CCC[C@H](N)C(=O)O
PROPERTY MEASURED: IC50 (µM)

>>> measured_value("CC(C)C[C@H](NC(=O)[C@H](Cc1ccccc1)NC(=O)[C@@H]1CSCC(=O)N[C@H](Cc2ccc(O)cc2)C(=O)N[C@@H](CC(=O)O)C(=O)N[C@@H](Cc2ccc(O)cc2)C(=O)N2CCC[C@H]2C(=O)NCC(=O)N[C@@H](CC(=O)O)C(=O)N[C@@H](Cc2ccccc2)C(=O)N1)C(=O)N[C@@H](Cc1ccc(O)cc1)C(=O)NCC(=O)N[C@H](C(=O)N[C@@H](CS)C(N)=O)[C@@H](C)O [Ce-2 Y7F, Y9F] ({CH2CO}-[dY]DYPGDFCFLYGTC-NH2; thioether N-8)")
4.46
>>> measured_value("CCC[C@@H]1NC(=O)[C@@H](Cc2ccc(O)cc2)NC(=O)CSC[C@@H](C(=O)N[C@@H](Cc2ccc(O)cc2)C(=O)N[C@@H](CC(C)C)C(=O)N[C@@H](Cc2ccc(O)cc2)C(=O)NCC(=O)N[C@H](C(=O)N[C@@H](CS)C(N)=O)[C@@H](C)O)NC(=O)[C@H](Cc2ccc(O)cc2)NC(=O)[C@H](CC(=O)O)NC(=O)CNC(=O)[C@@H]2CCCN2C(=O)[C@H](Cc2ccc(O)cc2)NC1=O [Ce-2 D2Nva] ({CH2CO}-[dY][Nva]YPGDYCYLYGTC-NH2; thioether N-8)")
8.73
>>> measured_value("CC(C)C[C@H](NC(=O)[C@H](Cc1ccc(O)cc1)NC(=O)[C@@H]1CSCC(=O)N[C@H](Cc2ccc(O)cc2)C(=O)N[C@@H](CC(=O)O)C(=O)N[C@@H](Cc2ccc(O)cc2)C(=O)N2CCC[C@H]2C(=O)NCC(=O)N[C@@H](CC(=O)O)C(=O)N[C@@H](Cc2ccc(O)cc2)C(=O)N1)C(=O)N[C@@H](Cc1ccc(O)cc1)C(=O)NCC(=O)NCC(=O)N[C@@H](Cc1c[nH]cn1)C(N)=O [Ce-2 T13G, C14H]")
12.7
>>> measured_value("CC(C)C[C@H](NC(=O)[C@H](Cc1ccc(O)cc1)NC(=O)[C@@H]1CSCC(=O)N[C@H](Cc2ccc(O)cc2)C(=O)N[C@@H](CC(=O)O)C(=O)N[C@@H](Cc2ccc(O)cc2)C(=O)N2CCC[C@H]2C(=O)NCC(=O)N[C@@H](CC(=O)O)C(=O)N[C@@H](Cc2ccc(O)cc2)C(=O)N1)C(=O)N[C@@H](Cc1ccc(O)cc1)C(=O)NCCCC(=O)N[C@@H](CS)C(N)=O [Ce-2 [12-13]GABA]")
2.98
>>> measured_value("COc1ccc(C[C@@H]2NC(=O)CSC[C@@H](C(=O)N[C@@H](Cc3ccc(O)cc3)C(=O)N[C@@H](CC(C)C)C(=O)N[C@@H](Cc3ccc(O)cc3)C(N)=O)NC(=O)[C@H](Cc3ccc(O)cc3)NC(=O)[C@H](CC(=O)O)NC(=O)CNC(=O)[C@@H]3CCCN3C(=O)[C@H](Cc3ccc(O)cc3)NC(=O)[C@H](CC(=O)O)NC2=O)cc1 [Ce-2d Y1(4OMe)F]")
20

###

Here the recorded kon is given for each entry.
biological target: C. elegans iPGM (Caenorhabditis elegans); assay: SPR binding kinetics and saturation binding, biotinylated iPGM on Biotin CAPture chip (Biacore S200)
Bridge positions count the residues as written; N and C are the ends. Square brackets hold non-standard residues; d marks the D form. Peptide text beside a SMILES is read from it. Abu = CC[C@H](N)C(=O)O
PROPERTY MEASURED: kon (M⁻¹ s⁻¹)

>>> measured_value("CC(C)C[C@H](NC(=O)[C@H](Cc1ccc(O)cc1)NC(=O)[C@@H]1CSCC(=O)N[C@H](Cc2ccc(O)cc2)C(=O)N[C@@H](CC(=O)O)C(=O)N[C@@H](Cc2ccc(O)cc2)C(=O)N2CCC[C@H]2C(=O)NCC(=O)N[C@@H](CC(=O)O)C(=O)N[C@@H](Cc2ccc(O)cc2)C(=O)N1)C(=O)N[C@@H](Cc1ccc(O)cc1)C(=O)NCC(=O)NCC(=O)NO [Ce-2 T13G, C14NHOH]")
197000
>>> measured_value("CC[C@@H]1NC(=O)[C@@H](Cc2ccc(O)cc2)NC(=O)CSC[C@@H](C(=O)N[C@@H](Cc2ccc(O)cc2)C(=O)N[C@@H](CC(C)C)C(=O)N[C@@H](Cc2ccc(O)cc2)C(=O)NCC(=O)N[C@H](C(=O)N[C@@H](CS)C(N)=O)[C@@H](C)O)NC(=O)[C@H](Cc2ccc(O)cc2)NC(=O)[C@H](CC(=O)O)NC(=O)CNC(=O)[C@@H]2CCCN2C(=O)[C@H](Cc2ccc(O)cc2)NC1=O [Ce-2 D2Abu] ({CH2CO}-[dY][Abu]YPGDYCYLYGTC-NH2; thioether N-8)")
"3.04e+06"
>>> measured_value("CC(C)C[C@H](NC(=O)[C@H](Cc1ccc(O)cc1)NC(=O)[C@@H]1CSCC(=O)N[C@H](Cc2ccc(O)cc2)C(=O)N[C@@H](CC(=O)O)C(=O)N[C@@H](Cc2ccc(O)cc2)C(=O)N2CCC[C@H]2C(=O)NCC(=O)N[C@@H](CC(=O)O)C(=O)N[C@@H](Cc2c[nH]cn2)C(=O)N1)C(=O)N[C@@H](Cc1ccc(O)cc1)C(=O)NCC(=O)N[C@H](C(=O)NO)[C@@H](C)O")
"1.86e+06"

###

target: D. immitis iPGM (Dirofilaria immitis); assay: biochemical; conditions: Di iPGM Ave IC50 (M)
PROPERTY MEASURED: IC50

>>> measured_value("COc1ccc(C[C@H]2NC(=O)CSC[C@@H](C(=O)N[C@@H](Cc3ccc(O)cc3)C(=O)N[C@@H](CC(C)C)C(=O)N[C@@H](Cc3ccc(O)cc3)C(N)=O)NC(=O)[C@H](Cc3ccc(O)cc3)NC(=O)[C@H](CC(=O)O)NC(=O)CNC(=O)[C@@H]3CCCN3C(=O)[C@H](Cc3ccc(O)cc3)NC(=O)[C@H](CC(=O)O)NC2=O)cc1")
"6.18e-08 M"
>>> measured_value("CC(C)C[C@H](NC(=O)[C@H](Cc1ccc(O)cc1)NC(=O)[C@@H]1CSCC(=O)N[C@H](Cc2ccc(O)cc2)C(=O)N[C@@H](CC(=O)O)C(=O)N[C@@H](Cc2ccc(O)cc2)C(=O)N2CCC[C@H]2C(=O)NCC(=O)N[C@@H](CC(=O)O)C(=O)N[C@@H](Cc2c[nH]cn2)C(=O)N1)C(=O)N[C@@H](Cc1ccc(O)cc1)C(=O)NCC(=O)N[C@H](C(=O)NO)[C@@H](C)O")
"2.92e-09 M"
>>> measured_value("CC(C)C[C@H](NC(=O)[C@H](Cc1ccc(O)cc1)NC(=O)[C@@H]1CSCC(=O)N[C@H](Cc2ccc(O)cc2)C(=O)N[C@@H](CC(=O)O)C(=O)N[C@@H](Cc2ccc(O)cc2)C(=O)N2CCC[C@H]2C(=O)NCC(=O)N[C@@H](CC(=O)O)C(=O)N[C@@H](CO)C(=O)N1)C(=O)N[C@@H](Cc1ccc(O)cc1)C(N)=O")
"1.78e-07 M"
